Target: human plasma kallikrein (Homo sapiens (Human))
Sequence (P03952 391-638): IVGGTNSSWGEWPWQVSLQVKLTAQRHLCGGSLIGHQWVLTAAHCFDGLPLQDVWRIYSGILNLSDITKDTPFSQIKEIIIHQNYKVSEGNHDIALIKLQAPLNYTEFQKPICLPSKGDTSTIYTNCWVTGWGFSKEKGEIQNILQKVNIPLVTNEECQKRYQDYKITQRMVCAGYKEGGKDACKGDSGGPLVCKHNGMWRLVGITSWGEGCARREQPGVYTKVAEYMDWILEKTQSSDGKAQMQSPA
Sequence (P03952 20-390 partner): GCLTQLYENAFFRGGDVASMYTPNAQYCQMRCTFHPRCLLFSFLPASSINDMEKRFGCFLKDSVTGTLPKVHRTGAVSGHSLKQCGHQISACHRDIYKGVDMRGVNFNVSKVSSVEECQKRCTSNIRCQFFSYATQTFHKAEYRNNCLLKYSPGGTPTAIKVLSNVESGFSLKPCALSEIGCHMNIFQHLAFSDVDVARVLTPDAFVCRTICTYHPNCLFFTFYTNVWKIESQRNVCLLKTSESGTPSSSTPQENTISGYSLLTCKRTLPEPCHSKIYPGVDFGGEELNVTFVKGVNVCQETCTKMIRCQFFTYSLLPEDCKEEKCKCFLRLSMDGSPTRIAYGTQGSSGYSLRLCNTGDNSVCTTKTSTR
Assay: In vitro enzyme inhibition of human plasma kallikrein (PFR-AMC cleavage)
Conditions: Pro-Phe-Arg-AMC substrate, 37° C., read-out: hPK IC50
pIC50: −log10 of the molar value.
valueKind: pIC50

// solved cases for pIC50 follow
- molecule: "Cc1cc(N)nc(C)c1CNC(=O)c1cc(CC(N)=O)nc(Cc2ccc3ncc(Cl)cc3c2)c1 [Example 214]"
  pIC50: "> 7.00"
- molecule: "Cc1cc(N)nc(C)c1CNC(=O)c1cc(CC#N)nc(Cc2ccc3ncc(Cl)cc3c2)c1 [Example 213]"
  pIC50: "> 7.00"
- molecule: "Cc1nc(N)ccc1CNC(=O)c1ccnc(Cc2ccc3ncc(C(N)=O)cc3c2)c1 [Example 251]"
  pIC50: "5.00 to 6.00"

## Task Using the record for Cc1cc(N)nc(C)c1CNC(=O)c1cc(Cc2ccc3ncc(Cl)cc3c2)nc(-c2n[nH]c(=O)[nH]2)c1 [Example 196] , state its measured pIC50.
## Result > 7.00

## Task Using the record for COc1cnc2ccc(Cc3cc(C(=O)NCc4c(C)cc(N)nc4C)ccn3)cc2c1 [Example 264] , state its measured pIC50.
## Result > 7.00

----------
Target: cellular kallikrein activity (Homo sapiens (Human))
Assay: In vitro cellular assay (contact assay): kallikrein activity in ellagic acid-activated human plasma, Z-FR-2-AMC substrate
Format: biochemical
Conditions: human plasma activated with ellagic acid, 37° C.
pEC50: −log10 of the molar value.
Below, each of the compounds is paired with its reported pEC50 value.

// solved cases for pEC50 follow
- smilesStructure: "COC(=O)c1cc(Cc2cc(C(=O)NCc3c(C)cc(N)nc3C)ccn2)cc2cc(Cl)cnc12"
  valueKind: "pEC50"
  result: "> 7.00"
- smilesStructure: "Cc1cc(N)nc(C)c1CNC(=O)c1ccnc(Cc2cnc3[nH]c(C(F)(F)F)cc3c2)c1"
  valueKind: "pEC50"
  result: "6.00 to 7.00"
- smilesStructure: "Cc1cc(N)nc(C)c1CNC(=O)c1ccnc(Cc2ccc3ncc(C(C)C)cc3c2)c1"
  valueKind: "pEC50"
  result: "> 7.00"
- smilesStructure: "O=C(NCc1cc2c(Cl)c[nH]c2cc1F)c1ccnc(Cc2ccc3ncc(C4CC4)cc3c2)c1"
  valueKind: "pEC50"
  result: "6.00 to 7.00"
- smilesStructure: "Cc1nc2c(c(C)c1CNC(=O)c1ccnc(Cc3ccc4ncc(C(F)(F)F)cc4c3)c1)CCN2"
  valueKind: "pEC50"
  result: "6.00 to 7.00"

## Task Using the record for "Cc1cc(N)nc(C)c1CNC(=O)c1cc(Cc2ccc3ncc(Cl)cc3c2)nc(C(N)=O)c1" , state its measured pEC50.
## Result > 7.00

## Task Using the record for "Cc1cc(N)nc(C)c1CNC(=O)c1ccnc(Cc2ccc3ncc(C(F)(F)F)cc3c2)c1" , state its measured pEC50.
## Result > 7.00

## Task Using the record for "Cc1cc(N)nc(C)c1CNC(=O)c1ccnc(Cc2cc3cc(C(F)(F)F)cnc3[nH]2)c1" , state its measured pEC50.
## Result 6.00 to 7.00

----------
Target: human plasma kallikrein (Homo sapiens (Human))
Assay: In vitro enzyme inhibition of human plasma kallikrein (PFR-AMC cleavage)
Settings: Pro-Phe-Arg-AMC substrate, 37° C., read-out: hPK IC50
pIC50: −log10 of the molar value.
Below, each of the compounds is paired with its reported pIC50 value.

- compound: "CCc1cnc2ccc(Cc3cc(C(=O)NCc4ccc(N)nc4C)ccn3)cc2c1 [Example 285]"
  pIC50: "> 7.00"
- compound: "Cc1cc(N)nc(C)c1CNC(=O)c1ccnc(Cc2cc(C(C)(C)O)c3ncc(Cl)cc3c2)c1 [Example 219]"
  pIC50: "> 7.00"

## Task Using the record for Cc1cc(N)nc(C)c1CNC(=O)c1ccnc(Cc2cc(N)c3ncc(Cl)cc3c2)c1 [Example 217] , state its measured pIC50.
## Result > 7.00

## Task Using the record for O=C(NCc1ccc2cnc(C(F)(F)F)n2c1)c1ccnc(Cc2ccc3ncc(Cl)cc3c2)c1 [Example 185] , state its measured pIC50.
## Result < 5.00

## Task Using the record for O=C(NCc1cc2c(Cl)c[nH]c2cc1F)c1ccnc(Cc2ccc3ncc(N4CCC4)cc3c2)c1 [Example 320] , state its measured pIC50.
## Result > 7.00

## Task Using the record for Cc1nc(N)ccc1CNC(=O)c1ccnc(Cc2cnc3ncc(Cl)cc3c2)c1 [Example 205] , state its measured pIC50.
## Result > 7.00

## Task Using the record for Cc1[nH]c2ccc(Cl)cc2c1CNC(=O)c1ccnc(Cc2ccc3ncc(Cl)cc3c2)c1 [Example 270] , state its measured pIC50.
## Result 6.00 to 7.00

## Task Using the record for Cc1nc(N)cc(C(F)(F)F)c1CNC(=O)c1ccnc(Cc2ccc3ncc(Cl)cc3c2)c1 [Example 165] , state its measured pIC50.
## Result 6.00 to 7.00
